# System: PC3
# TEST_NAME: in vitro antiproliferation assay, PC3 (prostate)
# Assay type: cell-based
Parameter IC50: see the listing below.

Previously resolved entries follow.
CCOC(=O)COc1cccc(Nc2ncc(F)c(Nc3cccc(C(C)(C)C)c3)n2)c1 [compound 958] = > 20 µM
O=C(COc1cccc(Nc2ncc(F)c(Nc3cccc(O)c3)n2)c1)N1CCOCC1 [compound 762] = ≤ 20 µM
Cc1cc(Nc2nc(Nc3cccc(OCC(=O)N4CCOCC4)c3)ncc2F)cc(Cl)c1O [compound 954] = > 20 µM
CNC(=O)COc1cccc(Nc2ncc(F)c(Nc3ccc4c(c3)NC(=O)C(C)O4)n2)c1 (racemic) [compound 256] = ≤ 20 µM
CC(C)Oc1ccc(Nc2nc(Nc3cccc(OCC(=O)O)c3)ncc2F)cc1 [compound 752] = > 20 µM

Lab request: please report IC50 under test system PC3 for Fc1ccc(Nc2ncc(F)c(Nc3ccc(F)c(Cl)c3)n2)cc1Cl [compound 938]
> 20 µM

Lab request: please report IC50 under test system PC3 for CNC(=O)COc1cccc(Nc2ncc(F)c(Nc3cccc(C(C)(C)C)c3)n2)c1 [compound 960]
> 20 µM

---

# System: A549 cells
# TEST_NAME: in vitro antiproliferation assay, A549 (lung)
# Assay type: cell-based
# COND: A549 (lung) cells, antiproliferation
pIC50: −log10 of the molar value.
Parameter pIC50: see the listing below.

COc1c(C)cc(Nc2nc(Nc3cccc(OCCN4CCNCC4)c3)ncc2F)cc1C [compound 987] = < 4.70

Lab request: please report pIC50 under test system A549 cells for CC(C)(C)c1cccc(Nc2ncc(F)c(Nc3cccc(O)c3)n2)c1 [compound 951]
< 4.70

Lab request: please report pIC50 under test system A549 cells for CCOC(=O)CCOc1ccc(Nc2nc(Nc3cccc(OCC(=O)NC)c3)ncc2F)cc1 [compound 1003]
< 4.70

Lab request: please report pIC50 under test system A549 cells for O=C(COc1cccc(Nc2ncc(F)c(Nc3cc(Cl)c(O)c(Cl)c3)n2)c1)N1CCNCC1 [compound 1001]
< 4.70

Lab request: please report pIC50 under test system A549 cells for NC(=O)c1ccc(Nc2nc(Nc3cc(Cl)c(O)c(Cl)c3)ncc2F)cc1 [compound 1027]
≥ 4.70

---

# Tested on: H1299 cells
# TEST_NAME: in vitro antiproliferation assay, H1299 (lung)
# Format: cell-based
# COND: Homo sapiens, NCI-H1299; H1299 (lung) cells
# Experimental: The IC50 values of various compounds against a various different tumor cell lines were determined using standard in vitro antiproliferation assays. […]
pIC50: −log10 of the molar value.
PARAMETER_MEASURED: pIC50

CNc1ncc(F)c(Nc2cc(Cl)c(OC)c(Cl)c2)n1 [compound 1160] = ≥ 4.70
COc1cc(C(N)=O)c(Nc2ncc(F)c(N(C)C3CCC3)n2)cc1OC(=O)c1ccccc1 [compound 1162] = ≥ 4.70
COc1cc(Nc2nc(Nc3cc(OC)c(Cl)cc3OC)ncc2F)cc(OC)c1 [compound 1159] = ≥ 4.70

Given the entry COc1cc(OC)c(Nc2ncc(F)c(Nc3ccc4c(c3)NC(=O)[C@H](C)O4)n2)cc1Cl [compound 1141] , report its measured pIC50.
< 4.70

Given the entry COc1cc(C)c(Nc2ncc(F)c(Nc3ccc4c(c3)NC(C)(C)CO4)n2)cc1Cl [compound 1142] , report its measured pIC50.
< 4.70

Given the entry COc1ccc(Nc2nc(Nc3cc(OC)c(Cl)cc3OC)ncc2F)cc1Cl [compound 1158] , report its measured pIC50.
≥ 4.70

Given the entry CC(Nc1ncc(F)c(Nc2ccc3c(c2)OCCO3)n1)c1ccccc1 (centres unmarked) [compound 1147] , report its measured pIC50.
≥ 4.70

Given the entry Cc1ccc(CNc2ncc(F)c(Nc3ccc4c(c3)OCCO4)n2)cc1Cl [compound 1146] , report its measured pIC50.
< 4.70
